Where these numbers come from: PubChem BioAssay AID2148

SYSTEM_UNDER_TEST: Melanin-concentrating hormone receptor 1 (Homo sapiens) (UniProt Q99705)
PROTOCOL_TEXT: antagonism of human MCHR1 receptor – cell-based, fluorescence, counter-screen for GPR7 antagonist project (AID 2148);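 note: 0% = vehicle with agonist and 100% = vehicle without agonist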
SETUP_CONDITIONS: MCHR1-expressing cells, fluorescence antagonist assay; at 4.4 µM; active compounds read high
Hit rate of the full screen: of about 2,400 compounds, about 1,500 (62%) were called active. The set was probably picked from earlier hits. These entries were drawn from the full list.
READOUT_NAME: inhibition (%)
Note: unit % is implicit; provide only the numeric part.

Data point: "Oc1cccc(/C=N/Nc2ccc(Cl)nn2)c1O" ; inhibition = 28.3

Data point: "COc1ccccc1Oc1ccc(S(=O)(=O)Nc2cccnc2)cc1" ; inhibition = 39.9

Data point: "N=c1n(CCc2ccccc2)c2ccccc2n1Cc1ccccc1F" ; inhibition = 53.5

Data point: "CCN(CC)CCOCCOc1ccc(Cl)c2ccccc12" ; inhibition = 19.4

Data point: "CCSc1nsc(NC(=O)Nc2cccc(C(C)=O)c2)n1" ; inhibition = 62

Data point: "CCN1CCN(c2ccc([N+](=O)[O-])cc2C(=O)c2ccc(Cl)cc2)CC1" ; inhibition = 41.1

Data point: "O=C(NC(=O)c1ccccc1)Nc1ccccc1O" ; inhibition = 14.3
